# systemUnderTest: DNA-PK (Homo sapiens (Human))
# experiment: DNA-PK assay (biochemical), flashplate 33P-ATP kinase assay
# conditionInfo: biochemical DNA-PK assay
pIC50: −log10 of the molar value.
measure: pIC50

Study these solved cases before continuing.
- compound: "NC(=O)C(c1ccc(F)c(-c2ncnc3cc(N4CCOCC4)ccc23)c1)c1c(F)cncc1F (stereo not shown)"
  pIC50: "7.52 to 8.15"
- compound: "OC(c1cc(-c2ncnc3cc(N4CCOCC4)ccc23)c(F)cc1F)c1nnc2ccccn12 (stereo not shown)"
  pIC50: "8.15 to 8.52"
- compound: "OC(c1ccc(F)c(-c2ncnc3cc(N4CCOCC4)ccc23)c1)c1ncnc2ccsc12 (stereo not shown)"
  pIC50: "> 8.52"

Field: next compound
# input Notebook entry, DNA-PK (Homo sapiens (Human)) assay: pIC50 of Nc1cncc(C(O)c2ccc(F)c(-c3ncnc4cc(N5CCOCC5)ccc34)c2)n1 (stereo not shown) = ?
# output 8.15 to 8.52

====

# systemUnderTest: DNA-PK phosphorylation at serine 2056 (Homo sapiens (Human), UniProt P78527)
# experiment: DNA-PK phosphorylation at serine 2056 (cellular), bleomycin-treated HCT116 cells, ELISA
# Assay type: cell-based
# conditionInfo: cellular; HCT116 cells, 10 μM bleomycin, six hours; read-out: IC50 pDNA-PK
For each entry below, report its IC50 value.

- molecule: "CN(C)C(=O)c1ccc(C(O)c2cc(-c3ncnc4cc(N5CCOCC5)ccc34)c(F)cc2Cl)nn1 (stereo not drawn)"
  IC50: "10 to 30 µM"
- molecule: "COc1nccnc1C(O)c1ccc(F)c(-c2ncnc3cc(N4CCOCC4)ccc23)c1 (stereo not drawn) [Example 16]"
  IC50: "0.5 to 5 µM"

Field: next molecule
# input # get_value(readout='IC50', item= COc1ccc(C(OC)c2ccc(F)c(-c3ncnc4cc(N5CCOCC5)ccc34)c2)nn1 (stereo not drawn) )
# output 0.5 to 5 µM

====

For each entry below, report its IC50 value.
# systemUnderTest: DNA-PK phosphorylation at serine 2056 (Homo sapiens (Human))
# experiment: DNA-PK phosphorylation at serine 2056 (cellular), bleomycin-treated HCT116 cells, ELISA
# Format: cell-based
# conditionInfo: Table 5; HCT116 cells; read-out: IC50 pDNA-PK

Study these solved cases before continuing.
- compound: "OC(c1cccc(-c2ncnc3cc(N4CCOCC4)ccc23)c1)(c1nccs1)C(F)(F)F (centres unmarked) [Example 159]"
  reportedValue: "10 to 30 µM"
- compound: "CC(O)(c1ccc(F)c(-c2ncnc3cc(N4CCOCC4)ccc23)c1)c1nccs1 (centres unmarked) [Example 163]"
  reportedValue: "10 to 30 µM"
- compound: "CCn1cc(C(O)c2cc(-c3ncnc4cc(N5CCOCC5)ccc34)c(F)cc2Cl)cn1 (centres unmarked) [Example 202]"
  reportedValue: "0.5 to 5 µM"
- compound: "OC(c1ccc(F)c(-c2ncnc3cc(N4CCOCC4)sc23)c1)c1nccs1 (centres unmarked) [Example 145]"
  reportedValue: "0.5 to 5 µM"
- compound: "OC(c1ccc(F)c(-c2ncnc3cc(N4CCOCC4)sc23)c1)c1nccs1 (racemic) [Example 144]"
  reportedValue: "0.5 to 5 µM"
- compound: "OC(c1cccc(-c2ncnc3cc(N4CCOCC4)sc23)c1)c1nccs1 (centres unmarked) [Example 182]"
  reportedValue: "5 to 10 µM"
- compound: "Cn1cc(C(O)c2ccc(F)c(-c3ncnc4cc(N5CCOCC5)ccc34)c2)cn1 (centres unmarked) [Example 191]"
  reportedValue: "10 to 30 µM"
- compound: "OCc1csc(C(O)c2cc(-c3ncnc4cc(N5CCOCC5)ccc34)c(F)cc2Cl)n1 (centres unmarked) [Example 142]"
  reportedValue: "0.5 to 5 µM"
- compound: "OC(c1cccc(-c2ncnc3cc(N4CCOCC4)ccc23)c1)c1nccs1 (centres unmarked) [Example 148]"
  reportedValue: "10 to 30 µM"
- compound: "OCc1csc([C@H](O)c2cc(-c3ncnc4cc(N5CCOCC5)ccc34)c(F)cc2Cl)n1 [Example 186]"
  reportedValue: "5 to 10 µM"

I have 8 compounds here; please give me IC50 for each one.
1. OCc1csc(C(O)c2cc(-c3ncnc4cc(N5CCOCC5)ncc34)c(F)cc2Cl)n1 (centres unmarked) [Example 141]
2. CC(O)c1csc(C(O)c2cc(-c3ncnc4cc(N5CCOCC5)ccc34)c(F)cc2Cl)n1 (centres unmarked) [Example 201]
3. OC(c1cc(F)c(F)c(-c2ncnc3cc(N4CCOCC4)ccc23)c1)c1nccs1 (centres unmarked) [Example 179]
4. OC(c1cc(F)c(F)c(-c2ncnc3cc(N4CCOCC4)ccc23)c1)c1nccs1 (centres unmarked) [Example 171]
5. c1nc(N2CCCCC2)c2scc(N3CCOCC3)c2n1 [Example 174]
6. Cc1nc(C(O)c2cc(-c3ncnc4cc(N5CCOCC5)ccc34)cnc2F)sc1C (centres unmarked) [Example 205]
7. OC(c1cnc(F)c(-c2ncnc3cc(N4CCOCC4)ccc23)c1)c1nccs1 (centres unmarked) [Example 180]
8. Fc1ccc(C(OC(F)F)c2nccs2)cc1-c1ncnc2cc(N3CCOCC3)ccc12 (centres unmarked) [Example 199]

# output
10 to 30 µM
0.5 to 5 µM
0.5 to 5 µM
0.5 to 5 µM
10 to 30 µM
10 to 30 µM
5 to 10 µM
10 to 30 µM

I have 4 compounds here; please give me IC50 for each one.
1. OC(c1cnc(F)c(-c2ncnc3cc(N4CCOCC4)ccc23)c1)c1nccs1 (centres unmarked) [Example 189]
2. Cc1nc([C@H](O)c2cnc(F)c(-c3ncnc4cc(N5CCOCC5)ncc34)c2)sc1C [Example 204]
3. COC(c1ccc(F)c(-c2ncnc3cc(N4CCOCC4)ccc23)c1)c1nccs1 (centres unmarked) [Example 177]
4. Cc1nc(C(O)c2cnc(F)c(-c3ncnc4cc(N5CCOCC5)ncc34)c2)sc1C (centres unmarked) [Example 203]

# output
1: 0.5 to 5 µM; 2: 10 to 30 µM; 3: 10 to 30 µM; 4: 10 to 30 µM

I have 4 compounds here; please give me IC50 for each one.
1. CC(C)n1cc(C(O)c2ccc(F)c(-c3ncnc4cc(N5CCOCC5)ccc34)c2)cn1 (centres unmarked) [Example 197]
2. Cc1nc(C(O)c2ccc(F)c(-c3ncnc4cc(N5CCOCC5)ccc34)c2)sc1CO (centres unmarked) [Example 200]
3. OC(c1cc(F)c(F)c(-c2ncnc3cc(N4CCOCC4)ccc23)c1)c1nccs1 (centres unmarked) [Example 178]
4. OC(c1cccc(-c2ncnc3cc(N4CCOCC4)ccc23)c1)(c1nccs1)C(F)(F)F (centres unmarked) [Example 173]

# output
5 to 10 µM
5 to 10 µM
0.5 to 5 µM
5 to 10 µM

Where these numbers come from: patent US9732094B2
